Test system: ZR-75-1
Assay: Cytotoxicity against human ZR-75-1 cells assessed as reduction in cell viability incubated for 72 hrs by MTT assay
Type: functional, cell-based
Conditions: ZR-75-1, 72 h
OBSERVATION_TYPE: EC50 (µM)

# SMILES_RECORD, VAL
data = [
    ("CCNC(=S)N/N=C/c1ccc(-c2ccc(C(=O)O)c(Cl)c2)o1", 125),
    ("O=C(N/N=C/c1cc([N+](=O)[O-])ccc1O)c1ccc(O)cc1O", 83.4),
]
